Molecular target: BCRP (Homo sapiens)
Sequence (Q9UNQ0 1-655): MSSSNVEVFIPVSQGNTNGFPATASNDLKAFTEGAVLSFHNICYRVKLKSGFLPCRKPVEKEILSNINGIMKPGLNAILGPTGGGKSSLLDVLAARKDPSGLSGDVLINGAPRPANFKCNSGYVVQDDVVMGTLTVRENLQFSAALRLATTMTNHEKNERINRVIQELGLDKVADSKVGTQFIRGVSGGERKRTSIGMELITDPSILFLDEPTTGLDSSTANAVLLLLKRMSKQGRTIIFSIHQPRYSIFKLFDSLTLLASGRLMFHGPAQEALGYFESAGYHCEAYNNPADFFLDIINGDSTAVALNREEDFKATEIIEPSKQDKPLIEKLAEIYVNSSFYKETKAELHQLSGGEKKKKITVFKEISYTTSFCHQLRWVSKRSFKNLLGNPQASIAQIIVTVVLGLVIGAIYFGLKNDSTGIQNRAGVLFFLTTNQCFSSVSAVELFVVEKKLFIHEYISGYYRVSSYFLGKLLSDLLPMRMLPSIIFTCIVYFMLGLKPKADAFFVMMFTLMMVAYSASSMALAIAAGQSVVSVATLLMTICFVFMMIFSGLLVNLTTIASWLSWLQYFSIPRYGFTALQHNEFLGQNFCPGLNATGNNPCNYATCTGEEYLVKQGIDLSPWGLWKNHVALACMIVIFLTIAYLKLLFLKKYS
Conditions: Caco-2
Property: Papp (B-A) (10^−6, cm/s)

{"Compound": "CC[C@@]1(O)C(=O)OCc2c1cc1n(c2=O)Cc2c-1nc1cc(F)c(C)c3c1c2[C@@H](NC(=O)[C@H]1C[C@H](O)C1)CC3", "Assay Target": "BCRP (Homo sapiens)", "Papp (B-A) (10^−6, cm/s)": "1.65 10^−6, cm/s"}
{"Compound": "CC[C@@]1(O)C(=O)OCc2c1cc1n(c2=O)Cc2c-1nc1cc(F)c(C)c3c1c2[C@@H](N1CCC(O)C1=O)CC3 (stereo partly drawn)", "Assay Target": "BCRP (Homo sapiens)", "Papp (B-A) (10^−6, cm/s)": "4.94 10^−6, cm/s"}
{"Compound": "CC[C@@]1(O)C(=O)OCc2c1cc1n(c2=O)Cc2c-1nc1cc(F)c(C)c3c1c2[C@@H](NC(=O)[C@H]1C[C@@H](O)C1)CC3", "Assay Target": "BCRP (Homo sapiens)", "Papp (B-A) (10^−6, cm/s)": "5.52 10^−6, cm/s"}

Provide each entry's Papp (B-A) (10^−6, cm/s) from the list below.
1. CC[C@@]1(O)C(=O)OCc2c1cc1n(c2=O)Cc2c-1nc1cc(F)c(C)c3c1c2[C@@H](NC(=O)C1CCC(O)CC1)CC3 (single isomer, unassigned) [P-II-1]
2. CC[C@@]1(O)C(=O)OCc2c1cc1n(c2=O)Cc2c-1nc1cc(F)c(C)c3c1c2[C@@H](NC(=O)C1CCC(O)CC1)CC3 (single isomer, unassigned) [P-II-2]
3. CC(C)c1nc(N(C)S(C)(=O)=O)nc(-c2ccc(F)cc2)c1/C=C/[C@@H](O)C[C@@H](O)CC(=O)O [Rosuvastatin, rosuvastatin, reference compound]

# output
["5.52 10^−6, cm/s", "1.70 10^−6, cm/s", "3.15 10^−6, cm/s"]
